- System: Escherichia coli
- procedure_text: Antibacterial activity against Escherichia coli ATCC 25922 after 18 to 24 hrs
- Type: functional
Could you please report measured MBC for the items listed next?
Answers are plain numbers, in µg/mL.

COc1ccc(C(=O)/C=C/c2ccc(OCc3nnc(-c4ccccc4O)o3)c(OC)c2)cc1; 12.5
COc1cc(/C=C/C(=O)c2ccc(O)cc2)ccc1OCc1nnc(COc2ccccc2)o1; 12.5
COc1ccc(C(=O)/C=C/c2ccc(OCc3nnc(-c4ccccc4)o3)c(OC)c2)cc1; 25
COc1cc(/C=C/C(=O)c2ccccc2)ccc1OCc1nnc(-c2ccccc2O)o1; 12.5

I would be grateful if you could provide MBC for each of the following entries.
1. COc1cc(/C=C/C(=O)c2ccccc2)ccc1OCc1nnc(-c2ccc(Cl)cc2)o1
2. COc1ccc(C(=O)/C=C/c2ccc(OCc3nnc(-c4ccc(Cl)cc4)o3)c(OC)c2)cc1
3. COc1cc(/C=C/C(=O)c2ccccc2)ccc1OCc1nnc(-c2ccc(C)cc2)o1

A)
1. 25
2. 100
3. 25

Provide MBC for all items below, preserving their order.
1. COc1cc(/C=C/C(=O)c2ccccc2)ccc1OCc1nnc(COc2ccccc2)o1
2. COc1ccc(C(=O)/C=C/c2ccc(OCc3nnc(COc4ccccc4)o3)c(OC)c2)cc1
3. COc1cc(/C=C/C(=O)c2ccc(O)cc2)ccc1OCc1nnc(-c2ccc([N+](=O)[O-])cc2)o1
4. COc1cc(/C=C/C(=O)c2ccc(O)cc2)ccc1OCc1nnc(-c2ccccc2O)o1
5. COc1cc(/C=C/C(=O)c2ccc(O)cc2)ccc1OCc1nnc(-c2ccc(Cl)cc2)o1
6. COc1cc(/C=C/C(=O)c2ccccc2)ccc1OCc1nnc(-c2ccccc2)o1
7. O=C(O)c1cn(C2CC2)c2cc(N3CCNCC3)c(F)cc2c1=O [CIPROFLOXACIN]
8. COc1ccc(C(=O)/C=C/c2ccc(OCc3nnc(-c4ccc(C)cc4)o3)c(OC)c2)cc1

A)
1: 12.5; 2: 12.5; 3: 100; 4: 25; 5: 50; 6: 25; 7: 12.5; 8: 25

Please supply MBC for each of the following items, keeping them in order.
1. COc1cc(/C=C/C(=O)c2ccc(O)cc2)ccc1OCc1nnc(-c2ccccc2)o1
2. COc1cc(/C=C/C(=O)c2ccc(O)cc2)ccc1OCc1nnc(-c2ccc(C)cc2)o1

A)
1: 50; 2: 25

* * *

- Tested on: Bacillus subtilis
- procedure_text: Antibacterial activity against Bacillus subtilis ATCC 6633 after 18 to 24 hrs
- Type: functional
readout_name: MBC (µg/mL)
Answers are plain numbers, in µg/mL.

Use these answered entries as a reference point.
COc1ccc(C(=O)/C=C/c2ccc(OCc3nnc(COc4ccccc4)o3)c(OC)c2)cc1; 12.5
COc1cc(/C=C/C(=O)c2ccccc2)ccc1OCc1nnc(-c2ccccc2)o1; 50
COc1cc(/C=C/C(=O)c2ccccc2)ccc1OCc1nnc(-c2ccc(C)cc2)o1; 12.5
COc1cc(/C=C/C(=O)c2ccccc2)ccc1OCc1nnc(-c2ccccc2O)o1; 12.5
COc1ccc(C(=O)/C=C/c2ccc(OCc3nnc(-c4ccccc4)o3)c(OC)c2)cc1; 12.5
COc1ccc(C(=O)/C=C/c2ccc(OCc3nnc(-c4ccccc4O)o3)c(OC)c2)cc1; 12.5
COc1cc(/C=C/C(=O)c2ccccc2)ccc1OCc1nnc(COc2ccccc2)o1; 25
COc1cc(/C=C/C(=O)c2ccc(O)cc2)ccc1OCc1nnc(COc2ccccc2)o1; 25
COc1cc(/C=C/C(=O)c2ccc(O)cc2)ccc1OCc1nnc(-c2ccc(C)cc2)o1; 25
COc1cc(/C=C/C(=O)c2ccc(O)cc2)ccc1OCc1nnc(-c2ccccc2)o1; 25

Look up MBC for the entries below, preserving their order.
1. COc1cc(/C=C/C(=O)c2ccc(O)cc2)ccc1OCc1nnc(-c2ccc([N+](=O)[O-])cc2)o1
2. O=C(O)c1cn(C2CC2)c2cc(N3CCNCC3)c(F)cc2c1=O

A)
[50, 12.5]

* * *

- Test system: Pseudomonas aeruginosa
- procedure_text: Antibacterial activity against Pseudomonas aeruginosa ATCC 27853 after 24 hrs by broth dilution technique
- Type: functional
- recorded_conditions: ATCC 27853, 24 h
readout_name: MIC (µg/mL)
One number for each entry, in µg/mL.

Please review the entries below; each comes with its answer.
COc1cc(/C=C/C(=O)c2ccccc2)ccc1OCc1nnc(-c2ccccc2O)o1; 6
COc1ccc(C(=O)/C=C/c2ccc(OCc3nnc(-c4ccccc4)o3)c(OC)c2)cc1; 12.5
COc1cc(/C=C/C(=O)c2ccc(O)cc2)ccc1OCc1nnc(-c2ccc(Cl)cc2)o1; 25
COc1ccc(C(=O)/C=C/c2ccc(OCc3nnc(-c4ccc(Cl)cc4)o3)c(OC)c2)cc1; 12.5
COc1cc(/C=C/C(=O)c2ccc(O)cc2)ccc1OCc1nnc(-c2ccc(C)cc2)o1; 25

Dear reader, for each entry below, please note its MIC.
1. COc1cc(/C=C/C(=O)c2ccc(O)cc2)ccc1OCc1nnc(-c2ccc([N+](=O)[O-])cc2)o1
2. COc1ccc(C(=O)/C=C/c2ccc(OCc3nnc(-c4ccccc4O)o3)c(OC)c2)cc1

A)
1. 12.5
2. 12.5

* * *

- Test system: Aspergillus niger
- procedure_text: Antifungal activity against Aspergillus niger after 48 hrs
- Format: functional
readout_name: MFC

COc1cc(/C=C/C(=O)c2ccc(O)cc2)ccc1OCc1nnc(-c2ccccc2O)o1; 12.5 µg/mL
COc1ccc(C(=O)/C=C/c2ccc(OCc3nnc(-c4ccccc4O)o3)c(OC)c2)cc1; 12.5 µg/mL
COc1cc(/C=C/C(=O)c2ccccc2)ccc1OCc1nnc(-c2ccccc2O)o1; 12.5 µg/mL

Let us move to another entry and its MFC.
// field: MFC; key: "COc1cc(/C=C/C(=O)c2ccccc2)ccc1OCc1nnc(-c2ccc(Cl)cc2)o1" ; value = 25 µg/mL

* * *

- Test system: Pseudomonas aeruginosa
- procedure_text: Antibacterial activity against Pseudomonas aeruginosa ATCC 27853 after 18 to 24 hrs
- Format: functional
Answer each item with its documented MBC.
Give bare numbers, in µg/mL.

These recorded examples may help you get a feel for the data.
COc1cc(/C=C/C(=O)c2ccc(O)cc2)ccc1OCc1nnc(COc2ccccc2)o1; 25
COc1cc(/C=C/C(=O)c2ccc(O)cc2)ccc1OCc1nnc(-c2ccc(C)cc2)o1; 100
COc1cc(/C=C/C(=O)c2ccc(O)cc2)ccc1OCc1nnc(-c2ccc(Cl)cc2)o1; 100
COc1cc(/C=C/C(=O)c2ccccc2)ccc1OCc1nnc(-c2ccc(C)cc2)o1; 50
O=C(O)c1cn(C2CC2)c2cc(N3CCNCC3)c(F)cc2c1=O [CIPROFLOXACIN]; 12.5
COc1ccc(C(=O)/C=C/c2ccc(OCc3nnc(-c4ccccc4)o3)c(OC)c2)cc1; 50
COc1cc(/C=C/C(=O)c2ccc(O)cc2)ccc1OCc1nnc(-c2ccccc2)o1; 50
COc1cc(/C=C/C(=O)c2ccccc2)ccc1OCc1nnc(COc2ccccc2)o1; 25
COc1cc(/C=C/C(=O)c2ccc(O)cc2)ccc1OCc1nnc(-c2ccc([N+](=O)[O-])cc2)o1; 100
COc1ccc(C(=O)/C=C/c2ccc(OCc3nnc(-c4ccccc4O)o3)c(OC)c2)cc1; 25

We next turn to a different molecule, shown below.
Kindly note: Pseudomonas aeruginosa, "COc1cc(/C=C/C(=O)c2ccccc2)ccc1OCc1nnc(-c2ccccc2)o1" , MBC value reported: 50

* * *

- System: Escherichia coli
- procedure_text: Antibacterial activity against Escherichia coli ATCC 25922 after 24 hrs by broth dilution technique
- Assay type: functional
- recorded_conditions: ATCC 25922, 24 h
readout_name: MIC
The answer should read as a number with its unit following.

// known answers, use as guide
COc1cc(/C=C/C(=O)c2ccccc2)ccc1OCc1nnc(-c2ccccc2O)o1; 6 µg/mL
COc1cc(/C=C/C(=O)c2ccccc2)ccc1OCc1nnc(-c2ccc(C)cc2)o1; 6 µg/mL
COc1ccc(C(=O)/C=C/c2ccc(OCc3nnc(-c4ccccc4)o3)c(OC)c2)cc1; 12.5 µg/mL
COc1cc(/C=C/C(=O)c2ccc(O)cc2)ccc1OCc1nnc(-c2ccccc2)o1; 12.5 µg/mL
COc1cc(/C=C/C(=O)c2ccccc2)ccc1OCc1nnc(COc2ccccc2)o1; 12.5 µg/mL
COc1ccc(C(=O)/C=C/c2ccc(OCc3nnc(-c4ccc(Cl)cc4)o3)c(OC)c2)cc1; 12.5 µg/mL
COc1ccc(C(=O)/C=C/c2ccc(OCc3nnc(-c4ccc(C)cc4)o3)c(OC)c2)cc1; 6 µg/mL
COc1cc(/C=C/C(=O)c2ccc(O)cc2)ccc1OCc1nnc(COc2ccccc2)o1; 6 µg/mL
COc1ccc(C(=O)/C=C/c2ccc(OCc3nnc(COc4ccccc4)o3)c(OC)c2)cc1; 25 µg/mL
COc1cc(/C=C/C(=O)c2ccc(O)cc2)ccc1OCc1nnc(-c2ccccc2O)o1; 12.5 µg/mL

API: the following record is the query input.
Summary for this compound, O=C(O)c1cn(C2CC2)c2cc(N3CCNCC3)c(F)cc2c1=O [CIPROFLOXACIN] : MIC is 6 µg/mL
